Quick reference: IC50 of the listed items.
system tested: DDR1 (Homo sapiens, UniProt Q08345)
Sequence (Q08345 19-913): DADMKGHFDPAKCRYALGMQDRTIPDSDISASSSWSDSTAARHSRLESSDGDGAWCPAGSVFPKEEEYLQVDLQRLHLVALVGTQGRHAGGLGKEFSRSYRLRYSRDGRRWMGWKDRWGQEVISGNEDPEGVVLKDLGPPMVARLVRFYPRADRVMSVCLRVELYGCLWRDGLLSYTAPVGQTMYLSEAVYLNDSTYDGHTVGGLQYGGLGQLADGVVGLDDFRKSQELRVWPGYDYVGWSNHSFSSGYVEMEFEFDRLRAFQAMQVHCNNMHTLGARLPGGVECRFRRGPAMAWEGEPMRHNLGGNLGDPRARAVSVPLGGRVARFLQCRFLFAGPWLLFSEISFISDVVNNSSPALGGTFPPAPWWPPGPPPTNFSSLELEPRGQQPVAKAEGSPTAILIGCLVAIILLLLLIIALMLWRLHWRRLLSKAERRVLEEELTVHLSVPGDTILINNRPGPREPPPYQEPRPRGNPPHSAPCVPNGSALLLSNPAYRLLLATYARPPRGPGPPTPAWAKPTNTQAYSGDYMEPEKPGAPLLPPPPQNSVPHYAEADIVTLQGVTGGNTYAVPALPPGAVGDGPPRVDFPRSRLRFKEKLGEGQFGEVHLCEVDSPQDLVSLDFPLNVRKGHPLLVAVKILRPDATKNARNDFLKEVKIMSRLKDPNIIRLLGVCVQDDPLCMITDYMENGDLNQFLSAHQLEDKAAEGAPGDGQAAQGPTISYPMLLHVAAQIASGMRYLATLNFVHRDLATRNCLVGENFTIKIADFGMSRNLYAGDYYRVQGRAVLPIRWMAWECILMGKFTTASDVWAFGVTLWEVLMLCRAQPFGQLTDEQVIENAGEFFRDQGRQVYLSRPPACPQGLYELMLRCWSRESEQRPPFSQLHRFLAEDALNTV
assay comment: DDR1 cell based assay (PathHunter U2OS DDR1 assay)
Parameters: host or cells: U2OS-DDR1 (PathHunter)
experimental parameters: U2OS-DDR1 cells, bovine Type II Collagen 20 μg/ml

| cpd smiles | system tested | IC50 |
| --- | --- | --- |
| O=C(Nc1ccc(OCCO)c(C(F)(F)F)c1)c1csc2c1CCN(C(=O)c1cnc3ccccn13)C2 | DDR1 (Homo sapiens, UniProt Q08345) | < 25 nM |
| O=C(Nc1ccc(CN2CCCC2)c(C(F)(F)F)c1)c1csc2c1CCN(C(=O)c1cnc3ccccn13)C2 | DDR1 (Homo sapiens, UniProt Q08345) | 50 to 80 nM |
| O=C(Nc1cncc(C(F)(F)F)c1)c1csc2c1CCN(C(=O)c1cnn3ccsc13)C2 | DDR1 (Homo sapiens, UniProt Q08345) | < 25 nM |
| Cc1ccc(-n2nc(C(C)(C)C)cc2NC(=O)c2csc3c2CCN(C(=O)c2cnc4ccccn24)C3)cc1 | DDR1 (Homo sapiens, UniProt Q08345) | 25 to 50 nM |
| CN(Cc1cc(NC(=O)c2csc3c2CCN(C(=O)c2cnc4ccccn24)C3)cc(C(F)(F)F)c1)C1COC1 | DDR1 (Homo sapiens, UniProt Q08345) | 50 to 80 nM |
| O=C(Nc1cc(N2CCOCC2)cc(C(F)(F)F)c1)c1csc2c1CCN(C(=O)c1cnn3ccncc13)C2 | DDR1 (Homo sapiens, UniProt Q08345) | < 25 nM |
